Provenance of the data: ChEMBL document CHEMBL3046780

Entries annotated with measured inhibition of growth at 150 g/ha
- Tested on: Galium aparine
- METHOD_SUMMARY: Post-emergence herbicidal activity against Galium aparine assessed as growth inhibition at 150 g ai/ha measured 15 days post compound treatment under green house conditions
- Type: functional
- MEASUREMENT_CONTEXT: 360 h, read-out: GI

Recorded inhibition of growth at 150 g/ha, per entry:
Cc1nc(C(F)(F)F)cc2nc(S(=O)(=O)Nc3c(Cl)cccc3Cl)nn12    ≥ 80%
COC(=O)c1cccc(Cl)c1NS(=O)(=O)c1nc2c(Cl)c(C)nc(C)n2n1    ≥ 80%
COc1ccn2nc(S(=O)(=O)Nc3cccc(Cl)c3Cl)nc2n1    50%

Task item: For the record `Cc1nc(C(F)(F)F)cc2nc(S(=O)(=O)Nc3c(F)cccc3F)nn12` , what value of inhibition of growth at 150 g/ha is listed for Galium aparine?
Reply: ≥ 80%

Task item: Under Galium aparine: inhibition of growth at 150 g/ha value of `COC(=O)c1cccc(Cl)c1NS(=O)(=O)c1nc2nc(OC)ccn2n1` ?
Reply: ≥ 90%

Task item: Which measured inhibition of growth at 150 g/ha belongs to `Cc1ccn2nc(S(=O)(=O)Nc3c(F)cccc3F)nc2n1` , tested on Galium aparine?
Reply: ≥ 80%

###

Reported values of inhibition of growth at 150 g/ha for individual entries
- System: Chenopodium album
- METHOD_SUMMARY: Post-emergence herbicidal activity against Chenopodium album assessed as growth inhibition at 150 g ai/ha measured 15 days post compound treatment under green house conditions
- Assay type: functional
- MEASUREMENT_CONTEXT: 360 h, read-out: GI

Task item: inhibition of growth at 150 g/ha for `COC(=O)c1cccc(Cl)c1NS(=O)(=O)c1nc2nc(OC)ccn2n1` ?
Reply: ≥ 90%

Task item: Consider the compound `COC(=O)c1cccc(Cl)c1NS(=O)(=O)c1nc2c(Cl)c(C)nc(C)n2n1` and give its measured inhibition of growth at 150 g/ha.
Reply: ≥ 80%

Task item: Give the measured inhibition of growth at 150 g/ha of `Cc1nc(C(F)(F)F)cc2nc(S(=O)(=O)Nc3c(F)cccc3F)nn12` .
Reply: ≥ 90%

Task item: Can you look up the measured inhibition of growth at 150 g/ha of `COc1ccn2nc(S(=O)(=O)Nc3cccc(Cl)c3Cl)nc2n1` for me?
Reply: < 50%

Task item: Need inhibition of growth at 150 g/ha, item `Cc1ccn2nc(S(=O)(=O)Nc3c(F)cccc3F)nc2n1`
Reply: ≥ 90%

Task item: What value of inhibition of growth at 150 g/ha has been reported for the following compound? `Cc1nc(C(F)(F)F)cc2nc(S(=O)(=O)Nc3c(Cl)cccc3Cl)nn12`
Reply: ≥ 90%

###

- Tested on: Rumex acetosa
- METHOD_SUMMARY: Post-emergence herbicidal activity against Rumex acetosa assessed as growth inhibition at 75 g ai/ha measured 15 days post compound treatment under green house conditions
- Format: functional
- MEASUREMENT_CONTEXT: 360 h, read-out: GI
Documented inhibition of growth at 75 g/ha across a set of compounds

Cc1nc(C(F)(F)F)cc2nc(S(=O)(=O)Nc3c(Cl)cccc3Cl)nn12    ≥ 80%
COc1ccn2nc(S(=O)(=O)Nc3cccc(Cl)c3Cl)nc2n1    50%
COC(=O)c1cccc(Cl)c1NS(=O)(=O)c1nc2c(Cl)c(C)nc(C)n2n1    50%

Task item: Please report the recorded inhibition of growth at 75 g/ha for `COC(=O)c1cccc(Cl)c1NS(=O)(=O)c1nc2nc(OC)ccn2n1` .
Reply: ≥ 80%

Task item: Look at this compound and give its reported inhibition of growth at 75 g/ha. `Cc1nc(C(F)(F)F)cc2nc(S(=O)(=O)Nc3c(F)cccc3F)nn12`
Reply: 50%

Task item: Data request, read-out inhibition of growth at 75 g/ha, for `Cc1ccn2nc(S(=O)(=O)Nc3c(F)cccc3F)nc2n1`
Reply: 50%
